Just for reference, the supplement of paper PMC11061612 is where these values come from.

Test system: KM-H2 (Hodgkin's Lymphoma)
test.summary: combination Emax (second highest fraction inhibited in the dose matrix, 72 h); higher = more inhibition; extreme values may be limits of the assay
Each entry below lists one item and its recorded combination Emax value.
Write no unit; give the number alone.

[[record]]
molecule = "CN(CCO)CC[C@H](CSc1ccccc1)Nc1ccc(S(=O)(=O)NC(=O)c2ccc(N3CCC([C@@H](O)c4ccccc4-c4ccc(Cl)cc4)CC3)cc2)cc1S(=O)(=O)C(F)(F)F [AZD4320] + C=CCn1c(=O)c2cnc(Nc3ccc(N4CCN(C)CC4)cc3)nc2n1-c1cccc(C(C)(C)O)n1 [AZD1775] (first compound max 1 µM, partner max 1 µM)"
val = 0.979

[[record]]
molecule = "Cc1c2c(nn1C)CSCc1cc(n(C)n1)CSc1cc(c3ccccc3c1)OCCCc1c(C(=O)O)n(C)c3c-2c(Cl)ccc13 [AZD5991] + CN(C)CCCOc1ccc(-c2ccc3ncc4c(c3c2)n(C2CCOCC2)c(=O)n4C)cn1 [AZD0156] (first compound max 1 µM, 7x7, partner max 1 µM)"
val = 0.201

[[record]]
molecule = "CN(CCO)CC[C@H](CSc1ccccc1)Nc1ccc(S(=O)(=O)NC(=O)c2ccc(N3CCC([C@@H](O)c4ccccc4-c4ccc(Cl)cc4)CC3)cc2)cc1S(=O)(=O)C(F)(F)F [AZD4320] + C[C@@H]1COCCN1C2=NC(=NC(=C2)C3(CC3)[S@](=N)(=O)C)C4=C5C=CNC5=NC=C4 [AZD6738] (first compound max 1 µM, 7x7, partner max 10 µM)"
val = 0.909

[[record]]
molecule = "NC1(C(=O)N[C@@H](CCO)c2ccc(Cl)cc2)CCN(c2ncnc3[nH]ccc23)CC1 [Capivasertib] + C[C@@H]1COCCN1C2=NC(=NC(=C2)C3(CC3)[S@](=N)(=O)C)C4=C5C=CNC5=NC=C4 [AZD6738] (first compound max 10 µM, 7x7, partner max 10 µM)"
val = 0.879

[[record]]
molecule = "CN(CCO)CC[C@H](CSc1ccccc1)Nc1ccc(S(=O)(=O)NC(=O)c2ccc(N3CCC([C@@H](O)c4ccccc4-c4ccc(Cl)cc4)CC3)cc2)cc1S(=O)(=O)C(F)(F)F [AZD4320] + Cn1cnc2c(F)c(Nc3ccc(Br)cc3Cl)c(C(=O)NOCCO)cc21 [Selumetinib] (first compound max 1 µM, 7x7, partner max 3 µM)"
val = 0.296


According to the records, this molecule CN(CCO)CC[C@H](CSc1ccccc1)Nc1ccc(S(=O)(=O)NC(=O)c2ccc(N3CCC([C@@H](O)c4ccccc4-c4ccc(Cl)cc4)CC3)cc2)cc1S(=O)(=O)C(F)(F)F [AZD4320] + Cc1cc2ncnn2cc1Nc1ncc2c(n1)n(C1CCOCC1)c(=O)n2C [AZD7648] (first compound max 1 µM, 7x7, partner max 10 µM) displays combination Emax of 0.0312

====

Test system: SW756 (Cervical Carcinoma)
test.summary: combination Emax (second highest fraction inhibited in the dose matrix, 72 h); higher = more inhibition; extreme values may be limits of the assay
Each entry below lists one item and its recorded combination Emax value.
Write no unit; give the number alone.

[[record]]
compound = "CCc1c2c(nc3ccc(O)cc13)-c1cc3c(c(=O)n1C2)COC(=O)[C@]3(O)CC [SN-38] + CN(C)CCCOc1ccc(-c2ccc3ncc4c(c3c2)n(C2CCOCC2)c(=O)n4C)cn1 [AZD0156] (first compound max 0.3 µM, 7x7, partner max 1 µM)"
tested_system = "SW756 (Cervical Carcinoma)"
val = 0.79


Next, consider the following compound.
According to the records, this compound CN(C)CCCOc1ccc(-c2ccc3ncc4c(c3c2)n(C2CCOCC2)c(=O)n4C)cn1 [AZD0156] + C=CCn1c(=O)c2cnc(Nc3ccc(N4CCN(C)CC4)cc3)nc2n1-c1cccc(C(C)(C)O)n1 [AZD1775] (first compound max 1 µM, partner max 1 µM) displays combination Emax of 0.379
